Numbers sourced from ChEMBL document CHEMBL4513216.

method: Toxicity liver stage against HepG2, at 10uM
Assay type: cell-based
Design: test concentration 10 uM, cell line HepG2-A16-CD81EGFP
testConditions: human, HepG2-A16-CD81EGFP cells; read-out: INHIBITION
reportedMetric: cytotoxicity at 10 µM (%)

O=C1COc2ccc(S(=O)(=O)NCCC3=CCCCC3)cc2N1: 5.42
OC(COCc1ccccc1Cl)CN1CCC(c2ccn[nH]2)CC1 (centres undefined): -15.1
Cc1cc(C)c(S(=O)(=O)NCCC(=O)NCc2ccoc2)c(C)c1: 4.05
COCC(C)(C#N)NC(=O)COc1ccccc1 (centres undefined): 7.51
Cc1nn(-c2cc(Cl)cc(Cl)c2)c(C)c1CCC(=O)O: 3.8
O=C(NCCc1csc(-c2cccnc2)n1)c1cnn2c1CCCC2: 3.41
O=C(c1cccnc1)N1CCC2(CC1)CC(Oc1ccccc1)CO2 (centres undefined): 1.65
COc1ncccc1CN1Cc2nnn(C)c2C(COCC2CC2)C1 (centres undefined): 12.4
COc1cccc(OCCNS(C)(=O)=O)c1: 13
O=C(c1ccc(Cl)o1)N1CCCC(c2cc(C(F)(F)F)[nH]n2)C1 (centres undefined): 2.14
Cc1cccc(-n2c(C)cc(C(=O)N3CCn4c(C)nnc4C3)c2C)c1: -4.86
Cc1nc(CC2CCCN(Cc3nc(N)c4ccccc4n3)C2)no1 (centres undefined): -41.3
CN(Cc1ccc(Cl)s1)C(=O)NCCC(=O)N1CCCCCC1: -0.691
Cc1cc(C)nc(Nc2cccc(C3CCCN(C)C3)n2)n1 (centres undefined): -4.45
Cc1ccc(C(=O)N2CCC(c3nccn3C(C)C)CC2)c(=O)[nH]1: 4.75
O=C(Nc1ccccc1)c1cccc(S(=O)(=O)NC[C@@H]2C[C@H](F)CN2)c1: 2.83
c1ccc2sc(N3CCOC(Cn4cccn4)C3)nc2c1 (centres undefined): -12.8
COCCc1noc(CN2CCCC(Cn3cncn3)C2)n1 (centres undefined): -2.55
CCC(NC(=O)Nc1cc(F)c(OC)c(F)c1)c1noc(C)n1 (centres undefined): -0.177
CC(C)Nc1cc(-c2c[nH]nc2C2CCN(C(=O)C3CCC3)C2)ccn1 (centres undefined): 81.8
Cc1ccc(C(=O)N2CCC(=O)N(CC3CC3)C(C(C)C)C2)c(=O)[nH]1 (centres undefined): -15
COc1ccc(CSc2nnc(N)n2C2CC2)cc1Cl: 0.00426
CN1CCN(CCNC(=O)c2sccc2C2CC2)CC1: -149
CS(=O)(=O)c1ccc(NC(=O)CSc2ccc3c(c2)CCC3)cn1: 11.8

====

method: Toxicity liver stage against HepG2, at 10uM
Format: cell-based
Parameters: test concentration 10 uM, cell line HepG2-A16-CD81EGFP
testConditions: human, HepG2-A16-CD81EGFP cells; read-out: INHIBITION
Quick reference for cytotoxicity at 10 µM among some compounds
reportedMetric: cytotoxicity at 10 µM (%)

CCC(c1ccccc1)S(=O)(=O)CCO (stereo unspecified): -136
Cn1cnc2ccc(NC(=O)CCCn3cccn3)cc2c1=O: 4.31
CC(=O)N1CCc2c(nc(N(C)C)nc2N(C)CCO)C1: -2.48
O=C(C1CCCO1)N1CCC(n2cc(-c3ccsc3)nn2)CC1 (stereo unspecified): -4.18
Nc1nc(CN2CCCCC2Cn2cncn2)nc2ccccc12 (stereo unspecified): -15.6
CCCn1nc2c(cc1=O)CN(Cc1nc(C)c(C)o1)CC2: -6.16
